# Subject Of Test: UniProt G1T8E2
# Sequence (G1T8E2 1-432): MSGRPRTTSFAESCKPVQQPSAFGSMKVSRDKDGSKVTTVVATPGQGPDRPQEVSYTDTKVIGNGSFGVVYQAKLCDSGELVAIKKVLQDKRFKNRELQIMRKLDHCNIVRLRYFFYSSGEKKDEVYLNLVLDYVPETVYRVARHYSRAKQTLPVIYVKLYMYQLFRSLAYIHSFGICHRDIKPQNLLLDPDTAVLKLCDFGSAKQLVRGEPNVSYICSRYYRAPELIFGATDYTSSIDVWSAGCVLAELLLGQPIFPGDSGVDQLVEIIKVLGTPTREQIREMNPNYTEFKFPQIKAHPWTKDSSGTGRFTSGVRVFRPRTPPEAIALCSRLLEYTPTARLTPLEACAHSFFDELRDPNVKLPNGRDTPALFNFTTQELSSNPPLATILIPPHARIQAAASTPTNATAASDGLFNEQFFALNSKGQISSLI
# Experiment Notes: Glycogen Synthase Kinase 3-β Assay
# Applied Conditions: inhibition value, recombinant rabbit GSK 3-β, PPI-2 substrate
pIC50: −log10 of the molar value.
Tag: Condition met if measured pIC50 is not below 7, Condition not met if it is.

Compound: O=C1NC(=O)C2=C1c1cn(c3ncccc13)CCCCCNCCCCCn1cc2c2cccnc21 [Cpd 20]
Answer Label: Condition not met
--
Compound: O=C1NC(=O)C2=C1c1cn(c3ccccc13)CCOCCOCCOCCn1cc2c2ccccc21 [Cpd 5]
Answer Label: Condition met
--
Compound: CCN1CCOCCn2cc(c3cccnc32)C2=C(C(=O)NC2=O)c2cn(c3ncccc23)CCOCC1 [Cpd 18]
Answer Label: Condition not met

Then there is this compound:
Answer whether pIC50 of O=C1NC(=O)C2=C1c1cn(c3ncccc13)CCOCCOCCOCCn1cc2c2cccnc21 [Cpd 1] is greater than or equal to 7. Condition met

* * *

# Subject Of Test: UniProtKB P05771
# Sequence (P05771 1-673 isoform P05771-2): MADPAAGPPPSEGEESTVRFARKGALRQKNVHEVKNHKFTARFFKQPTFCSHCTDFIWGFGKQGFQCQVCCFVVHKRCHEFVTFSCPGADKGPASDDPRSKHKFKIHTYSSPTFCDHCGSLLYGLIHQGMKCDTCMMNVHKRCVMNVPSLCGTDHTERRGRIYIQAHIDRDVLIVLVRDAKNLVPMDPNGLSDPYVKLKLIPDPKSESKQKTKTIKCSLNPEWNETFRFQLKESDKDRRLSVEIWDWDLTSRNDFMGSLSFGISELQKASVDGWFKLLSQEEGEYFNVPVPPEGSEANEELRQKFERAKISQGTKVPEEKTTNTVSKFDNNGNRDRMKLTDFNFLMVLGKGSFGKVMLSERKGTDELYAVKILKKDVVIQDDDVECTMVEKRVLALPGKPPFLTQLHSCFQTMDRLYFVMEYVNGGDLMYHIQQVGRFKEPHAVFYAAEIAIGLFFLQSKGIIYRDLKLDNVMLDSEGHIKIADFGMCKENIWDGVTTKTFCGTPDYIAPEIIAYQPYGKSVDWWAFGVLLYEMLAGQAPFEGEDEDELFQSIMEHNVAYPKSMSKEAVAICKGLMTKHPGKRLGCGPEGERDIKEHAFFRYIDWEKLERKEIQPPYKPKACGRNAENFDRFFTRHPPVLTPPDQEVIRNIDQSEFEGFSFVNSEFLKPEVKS
# Experiment Notes: Protein Kinase C Scintillation Proximity Assay (SPA), PKC-βII
# Applied Conditions: inhibition value, recombinant human isozyme, 1 μM ATP
Below: a set of entries, each annotated with reported IC50.
Number in nM, nothing else.

Consider the reported IC50 for these compounds:
Smiles Input: O=C1NC(=O)C2=C1c1cn(c3ccccc13)Cc1cccc(n1)Cn1cc2c2cccnc21
Uom: nM
IC50: 35
--
Smiles Input: CC(C)N1CCOCCn2cc(c3ccccc32)C2=C(C(=O)NC2=O)c2cn(c3ccccc23)CCOCC1
Uom: nM
IC50: 15
--
Smiles Input: CN1CCCn2cc(c3ccccc32)C2=C(C(=O)NC2=O)c2cn(c3ccccc23)CCOCCOCC1
Uom: nM
IC50: 7
--
Smiles Input: CN1CCOCCn2cc(c3ccccc32)C2=C(C(=O)NC2=O)c2cn(c3ccccc23)CCOCC1
Uom: nM
IC50: 40
--
Smiles Input: O=C1NC(=O)C2=C1c1cn(c3ccccc13)CCOCCOCCOCCOCCn1cc2c2ccccc21
Uom: nM
IC50: 212
--
Smiles Input: COCCN1CCOCCn2cc(c3ccccc32)C2=C(C(=O)NC2=O)c2nn(c3ccccc23)CCOCC1
Uom: nM
IC50: 369

# lookup: IC50 of `CCN1CCOCCn2cc(c3ccccc32)C2=C(C(=O)NC2=O)c2nn(c3ccccc23)CCOCC1` 385

Subsequent entry: `CCN1CCOCCn2cc(c3ccccc32)C2=C(C(=O)NC2=O)c2cn(c3ccccc23)CCOCC1` 8

Subsequent entry: `O=C1NC(=O)C2=C1c1cn(c3ccccc13)CCOCCOCCn1cc2c2cccnc21` 519

Subsequent entry: `O=C1NC(=O)C2=C1c1cn(c3ncccc13)CCOCCOCCOCCn1cc2c2cccnc21` 2410

Subsequent entry: `O=C1NC(=O)C2=C1c1cn(c3ccccc13)Cc1cccc(c1)Cn1cc2c2cccnc21` 288

Subsequent entry: `O=C1NC(=O)C2=C1c1cn(c3ccccc13)CCOCCOCCn1cc2c2ccccc21` 99

Subsequent entry: `O=C1NC(=O)C2=C1c1cn(c3ccccc13)CCOCCN(CCO)CCOCCn1cc2c2ccccc21` 11

Subsequent entry: `CN1CCOCCn2cc(c3ccccc32)C2=C(C(=O)NC2=O)c2nn(c3ccccc23)CCOCC1` 63

Subsequent entry: `O=C1NC(=O)C2=C1c1cn(c3ccccc13)CCOCCOCCOCCOCCOCCn1cc2c2ccccc21` 285
